Test system: E. faecalis VRE 6
test description: MIC, broth microdilution, vancomycin-resistant E. faecalis VRE 6 (VanA)
Format: cell-based, Enterococcus faecalis
test context: Enterococcus faecalis VRE 6 (vancomycin-resistant); read-out: MIC
measured endpoint: MIC (µM)
Report the figure in µM without appending any unit label.

IN: Please tell me: MIC of `CCc1ccc(NC(=O)CNC(=O)[C@H]2NC(=O)[C@H]3NC(=O)[C@H](NC(=O)[C@@H]4NC(=O)[C@H](CC(N)=O)NC(=O)[C@H](NC(=O)[C@@H](CC(C)C)NC)[C@H](O)c5ccc(c(Cl)c5)Oc5cc4cc(c5O[C@@H]4O[C@H](CO)[C@@H](O)[C@H](O)[C@H]4O[C@H]4C[C@](C)(N)[C@H](O)[C@H](C)O4)Oc4ccc(cc4Cl)[C@H]3O)c3ccc(O)c(c3)-c3c(O)cc(O)cc32)cc1` , system E. faecalis VRE 6?
OUT: 12.5

---
IN: Please tell me: MIC of `CN[C@H](CC(C)C)C(=O)N[C@H]1C(=O)N[C@@H](CC(N)=O)C(=O)N[C@H]2C(=O)N[C@H]3C(=O)N[C@H](C(=O)N[C@H](C(=O)NCCNC(=O)/C=C/c4ccc(C)cc4)c4cc(O)cc(O)c4-c4cc3ccc4O)[C@H](O)c3ccc(c(Cl)c3)Oc3cc2cc(c3O[C@@H]2O[C@H](CO)[C@@H](O)[C@H](O)[C@H]2O[C@H]2C[C@](C)(N)[C@H](O)[C@H](C)O2)Oc2ccc(cc2Cl)[C@H]1O` , system E. faecalis VRE 6?
OUT: 12.5

Cited source for all entries: paper PMC6001238
